- measured.on: rat δ (C6-DOR) opioid receptor (Rattus norvegicus)
- Sequence (P33533 whole entry): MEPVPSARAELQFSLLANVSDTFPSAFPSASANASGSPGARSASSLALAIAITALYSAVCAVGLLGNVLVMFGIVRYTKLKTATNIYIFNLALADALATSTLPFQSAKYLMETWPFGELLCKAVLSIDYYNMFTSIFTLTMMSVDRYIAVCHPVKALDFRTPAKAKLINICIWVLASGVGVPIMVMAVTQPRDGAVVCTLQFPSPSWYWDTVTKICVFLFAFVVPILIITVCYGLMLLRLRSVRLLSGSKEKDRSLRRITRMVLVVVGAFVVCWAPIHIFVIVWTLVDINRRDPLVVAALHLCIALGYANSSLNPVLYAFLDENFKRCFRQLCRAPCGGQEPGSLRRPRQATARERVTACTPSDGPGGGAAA
- measurement.notes: Stimulation of [35S]GTPγS binding, DOR
- experimental.conditions: [35S]GTPγS binding, C6-DOR membranes; mean ± standard error
pEC50: −log10 of the molar value.
readout.kind: pEC50

INSERT INTO assay_data (compound, readout_kind, endpoint_value) VALUES
  ('Cc1cc(O)cc(C)c1C[C@H](N)C(=O)N(C1CC1)[C@@H]1CCNc2ccc(Cc3ccccc3)cc21 [Compound 1015]', 'pEC50', 6.83),
  ('COc1cc2c(cc1Cc1ccccc1)[C@H](NC(=O)[C@@H](N)Cc1c(C)cc(O)cc1C)CCN2 [Compound 1045]', 'pEC50', 6.87),
  ('Cc1cc(O)cc(C)c1C[C@H](N)C(=O)N[C@@H]1CC[C@@H](C)c2ccc(Cc3ccccc3)cc21 [Compound 1121]', 'pEC50', 6.96),
  ('Cc1cc(O)cc(C)c1C[C@H](N)C(=O)N[C@@H]1CCNc2c(-c3ccoc3)cc(Cc3ccccc3)cc21 [Compound 1094]', 'pEC50', 7.13),
  ('Cc1cc(O)cc(C)c1C[C@H](N)C(=O)N[C@@H]1CCOc2ccc(Cc3ccccc3)cc21 [Compound 1111]', 'pEC50', 6.93),
  ('COc1cc(Cc2ccccc2)cc2c1NCC[C@H]2NC(=O)[C@@H](N)Cc1c(C)cc(O)cc1C [Compound 1063]', 'pEC50', 7.20);
